# system_under_test: UniProt P43116
# run_description: EP2 flipr assay
# Type: cell-based
# Source text: U.S. patent application Ser. No. 11/553,143, filed on Oct. 26, 2006, incorporated by reference herein, describes the methods used to obtain the in vitro data in the table below.
quantity_measured: EC50 (nM)
All answers are understood in nM, so give the number only.

Look up UniProt P43116 data: EC50 of CCCCCC(O)c1ccc(N2C(=O)CC[C@@H]2CSc2nc(C(=O)O)cs2)cc1 (stereo partly drawn) [compound 55] , then report it.
284

Look up UniProt P43116 data: EC50 of CCCCCC(F)c1ccc(N2C(=O)CC[C@@H]2CCSc2nc(C(=O)O)cs2)cc1 (stereo partly drawn) [compound 19] , then report it.
8

Look up UniProt P43116 data: EC50 of CCCCCC(O)c1ccc(N2C(=O)CC[C@@H]2CCSc2nc(C(=O)O)cs2)cc1 (single isomer, unassigned) [compound 18] , then report it.
7

Look up UniProt P43116 data: EC50 of CCCCCCC(O)c1ccc(N2C(=O)CC[C@@H]2CCSc2nc(C(=O)O)cs2)cc1 (single isomer, unassigned) [compound 37] , then report it.
11

Look up UniProt P43116 data: EC50 of CCCCCC(O)c1ccc(N2C(=O)CC[C@@H]2CCSc2nc(C(=O)O)cs2)cc1 (single isomer, unassigned) [compound 17] , then report it.
18

Look up UniProt P43116 data: EC50 of O=C(O)c1ccc(COC[C@H]2CCC(=O)N2c2ccc(-c3nccs3)cc2)s1 [compound 58] , then report it.
5890

Look up UniProt P43116 data: EC50 of CCCCCC(O)c1ccc(N2C(=O)CC[C@@H]2CCCc2nc(C(=O)O)cs2)cc1 (stereo partly drawn) [compound 63] , then report it.
37

Look up UniProt P43116 data: EC50 of CCCCCC(O)c1ccc(N2C(=O)CC[C@@H]2COCc2cc(C(=O)O)cs2)cc1 (stereo partly drawn) [compound 42] , then report it.
2240

Look up UniProt P43116 data: EC50 of CCCCCC(O)c1ccc(N2C(=O)CC[C@@H]2CCSc2ncc(C(=O)O)s2)cc1 (stereo partly drawn) [compound 22] , then report it.
1800

###

pKi: −log10 of the molar value.
quantity_measured: pKi

Look up EP4 (Homo sapiens, UniProt P35408) data: pKi of CCCCCCC(=O)c1ccc(N2C(=O)CC[C@@H]2CCSc2nc(C(=O)O)cs2)cc1 , then report it.
5.52

Look up EP4 (Homo sapiens, UniProt P35408) data: pKi of CCCCCC(F)c1ccc(N2C(=O)CC[C@@H]2COCc2csc(C(=O)O)c2)cc1 (stereo partly drawn) , then report it.
< 5.00

Look up EP4 (Homo sapiens, UniProt P35408) data: pKi of CCCCCC(F)c1ccc(N2C(=O)CC[C@@H]2CSc2nc(C(=O)O)cs2)cc1 (stereo partly drawn) , then report it.
< 5.00

Look up EP4 (Homo sapiens, UniProt P35408) data: pKi of CCCCCC(O)c1ccc(N2C(=O)CC[C@@H]2COCc2cc(C(=O)O)cs2)cc1 (stereo partly drawn) , then report it.
< 5.00

Look up EP4 (Homo sapiens, UniProt P35408) data: pKi of CCCCCC(O)c1ccc(N2C(=O)CC[C@@H]2CCSc2ncc(C(=O)O)s2)cc1 (stereo partly drawn) , then report it.
< 5.00

Look up EP4 (Homo sapiens, UniProt P35408) data: pKi of CCCCCC(O)c1ccc(N2C(=O)CC[C@@H]2CSc2nc(C(=O)O)cs2)cc1 (stereo partly drawn) , then report it.
< 5.00

###

Give measured log10 of Ki for each item. Keep answers brief.
Field: value | Transform: log10 | Quantity: Ki | Unit: nM

Look up EP2 (Homo sapiens, UniProt P43116) data: log10 of Ki of CCCCCC(O)c1ccc(N2C(=O)CC[C@@H]2CCSc2nc(C(=O)O)cs2)cc1 (single isomer, unassigned) , then report it.
1.18

Look up EP2 (Homo sapiens, UniProt P43116) data: log10 of Ki of CCCCCC(O)c1ccc(N2C(=O)CC[C@@H]2CCSc2ncc(C(=O)O)s2)cc1 (stereo partly drawn) , then report it.
2.59

Look up EP2 (Homo sapiens, UniProt P43116) data: log10 of Ki of CCCCCC(F)c1ccc(N2C(=O)CC[C@@H]2COCc2cc(C(=O)O)cs2)cc1 (stereo partly drawn) , then report it.
2.41

Look up EP2 (Homo sapiens, UniProt P43116) data: log10 of Ki of CCCCCC(O)c1ccc(N2C(=O)CC[C@@H]2CSc2nc(C(=O)O)cs2)cc1 (stereo partly drawn) , then report it.
2.55

Look up EP2 (Homo sapiens, UniProt P43116) data: log10 of Ki of CCCCCC(F)c1ccc(N2C(=O)CC[C@@H]2CSc2nc(C(=O)O)cs2)cc1 (stereo partly drawn) , then report it.
2.54

Look up EP2 (Homo sapiens, UniProt P43116) data: log10 of Ki of CCCCCCC(=O)c1ccc(N2C(=O)CC[C@@H]2CCSc2nc(C(=O)O)cs2)cc1 , then report it.
1.26

###

Give measured EC50 for each item. Keep answers brief.
# system_under_test: hEP3A (Homo sapiens)
# Sequence (P43115 whole entry): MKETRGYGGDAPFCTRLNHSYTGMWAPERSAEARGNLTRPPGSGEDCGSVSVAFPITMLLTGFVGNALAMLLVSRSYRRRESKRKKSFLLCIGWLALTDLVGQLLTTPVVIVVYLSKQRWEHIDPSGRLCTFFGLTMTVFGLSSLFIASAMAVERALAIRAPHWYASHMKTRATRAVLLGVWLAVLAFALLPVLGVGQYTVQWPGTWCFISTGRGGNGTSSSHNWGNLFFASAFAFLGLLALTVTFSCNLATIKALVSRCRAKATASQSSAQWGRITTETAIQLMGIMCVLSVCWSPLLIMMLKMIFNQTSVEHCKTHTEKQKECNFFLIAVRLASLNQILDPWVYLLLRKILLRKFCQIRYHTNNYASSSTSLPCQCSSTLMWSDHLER
# run_description: Other receptors functional EC50, hEP3A
# Type: cell-based
# Text: U.S. patent application Ser. No. 11/553,143, filed on Oct. 26, 2006, incorporated by reference herein, describes the methods used to obtain the in vitro data in the table below.

Look up hEP3A (Homo sapiens) data: EC50 of CCCCCCC(O)c1ccc(N2C(=O)CC[C@@H]2CCSc2nc(C(=O)O)cs2)cc1 (some centres unmarked) [compound 33] , then report it.
25 nM

Look up hEP3A (Homo sapiens) data: EC50 of CCCCCC(F)c1ccc(N2C(=O)CC[C@@H]2COCc2csc(C(=O)O)c2)cc1 (some centres unmarked) , then report it.
3410 nM

Look up hEP3A (Homo sapiens) data: EC50 of CCCCCC(F)c1ccc(N2C(=O)CC[C@@H]2CCSc2nc(C(=O)O)cs2)cc1 (some centres unmarked) , then report it.
90 nM

Look up hEP3A (Homo sapiens) data: EC50 of CCCCCC(O)c1ccc(N2C(=O)CC[C@@H]2COCc2cc(C(=O)O)cs2)cc1 (some centres unmarked) , then report it.
1520 nM

Look up hEP3A (Homo sapiens) data: EC50 of CCCCCCC(O)c1ccc(N2C(=O)CC[C@@H]2CCSc2nc(C(=O)O)cs2)cc1 (single isomer, unassigned) [compound 36] , then report it.
11 nM

Look up hEP3A (Homo sapiens) data: EC50 of CCCCCCC(O)c1ccc(N2C(=O)CC[C@@H]2CCSc2nc(C(=O)O)cs2)cc1 (single isomer, unassigned) [compound 37] , then report it.
51 nM

Look up hEP3A (Homo sapiens) data: EC50 of CCCCCC(O)c1ccc(N2C(=O)CC[C@@H]2CCSc2nc(C(=O)O)cs2)cc1 (single isomer, unassigned) [compound 18] , then report it.
46 nM

Look up hEP3A (Homo sapiens) data: EC50 of CCCCCC(F)c1ccc(N2C(=O)CC[C@@H]2COCc2cc(C(=O)O)cs2)cc1 (some centres unmarked) , then report it.
1960 nM

###

# system_under_test: hIP (Homo sapiens, UniProt P43119)
# Sequence (P43119 whole entry): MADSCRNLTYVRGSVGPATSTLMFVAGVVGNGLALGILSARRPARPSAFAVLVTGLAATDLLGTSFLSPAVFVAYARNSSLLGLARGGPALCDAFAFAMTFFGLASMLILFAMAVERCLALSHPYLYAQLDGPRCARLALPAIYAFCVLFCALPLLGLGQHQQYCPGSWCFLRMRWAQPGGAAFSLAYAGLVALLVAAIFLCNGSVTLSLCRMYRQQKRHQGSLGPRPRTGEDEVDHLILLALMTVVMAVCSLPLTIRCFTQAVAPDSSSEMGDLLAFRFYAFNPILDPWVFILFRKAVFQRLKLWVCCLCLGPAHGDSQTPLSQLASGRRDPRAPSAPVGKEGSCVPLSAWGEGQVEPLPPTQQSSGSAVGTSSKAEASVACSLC
# run_description: Other receptors functional EC50, hIP
# Type: cell-based
Give measured EC50 for each item. Keep answers brief.

Output EC50 of CCCCCC(O)c1ccc(N2C(=O)CC[C@@H]2CCSc2ncc(C(=O)O)s2)cc1 (some centres unmarked) [compound 22]
> 10000 nM

Output EC50 of CCCCCC(O)c1ccc(N2C(=O)CC[C@@H]2CCSc2nc(C(=O)O)cs2)cc1 (some centres unmarked) [compound 14]
> 10000 nM
